# test-method-notes: Solubility measurement by gravimetric method in various solvents
# Type: physicochemical
# assay-context: organic solvent or mixture, thermodynamic from solid; IPA; 50° C.
reported-property: solubility (µg/mL)
Numbers only, in µg/mL.

Asked: Suppose we examine the compound CCCCCCCC/C=C\CCCCCCCCOP(O)(O)=S ; what solubility value has been reported?
Given back: 5000

---

# test-method-notes: Subcutaneous and intravenous pharmacokinetics in healthy and irradiated Rhesus Macaques
# Format: in vivo
# assay-context: male, rhesus monkey, plasma, sc, 1 mg/kg, SC post IR (~24 hours after 11.5 Gy Partial Body Irradiation); 1 mg/kg
reported-property: Tmax (h)
Give bare numbers, in h.

Asked: Suppose we examine the compound CCCCCCCC/C=C\CCCCCCCCOP(O)(O)=S ; what Tmax value has been reported?
Given back: 4
